FYI, the data here is from patent US9850205B2.

assay: In vivo pharmacokinetic comparison study in SD rats (gavage, LC-MS/MS plasma concentration); conditions: male, SD (Sprague-Dawley), rat, plasma, po, 10 mg/kg, male rats, gavage 10 mg/kg suspension; read-out: time to peak Tmax (median)
parameter-measured: Tmax (h)

# molecule, display-unit, result-value
records = [
    ("CCOc1cc(C(CS(C)(=O)=O)N2C(=O)c3cccc(NC(C)=O)c3C2=O)ccc1OC (single isomer, unassigned; (+)) [Form II]", "h", 1),
    ("CCOc1cc([C@@H](CS(C)(=O)=O)N2C(=O)c3cccc(NC(C)=O)c3C2=O)ccc1OC [Form B]", "h", 1),
]
